# Assay Target: AR WT (Homo sapiens, UniProt P10275, DEL79-80/DUP473-473)
# Construct: expressed in transfected cells; host or cells: LNCaP-Pb.PSE.EGFP (pantropic retroviral infection, blasticidin selection)
# Sequence (P10275 with tags, fused parts or gaps DEL79-80/DUP473-473): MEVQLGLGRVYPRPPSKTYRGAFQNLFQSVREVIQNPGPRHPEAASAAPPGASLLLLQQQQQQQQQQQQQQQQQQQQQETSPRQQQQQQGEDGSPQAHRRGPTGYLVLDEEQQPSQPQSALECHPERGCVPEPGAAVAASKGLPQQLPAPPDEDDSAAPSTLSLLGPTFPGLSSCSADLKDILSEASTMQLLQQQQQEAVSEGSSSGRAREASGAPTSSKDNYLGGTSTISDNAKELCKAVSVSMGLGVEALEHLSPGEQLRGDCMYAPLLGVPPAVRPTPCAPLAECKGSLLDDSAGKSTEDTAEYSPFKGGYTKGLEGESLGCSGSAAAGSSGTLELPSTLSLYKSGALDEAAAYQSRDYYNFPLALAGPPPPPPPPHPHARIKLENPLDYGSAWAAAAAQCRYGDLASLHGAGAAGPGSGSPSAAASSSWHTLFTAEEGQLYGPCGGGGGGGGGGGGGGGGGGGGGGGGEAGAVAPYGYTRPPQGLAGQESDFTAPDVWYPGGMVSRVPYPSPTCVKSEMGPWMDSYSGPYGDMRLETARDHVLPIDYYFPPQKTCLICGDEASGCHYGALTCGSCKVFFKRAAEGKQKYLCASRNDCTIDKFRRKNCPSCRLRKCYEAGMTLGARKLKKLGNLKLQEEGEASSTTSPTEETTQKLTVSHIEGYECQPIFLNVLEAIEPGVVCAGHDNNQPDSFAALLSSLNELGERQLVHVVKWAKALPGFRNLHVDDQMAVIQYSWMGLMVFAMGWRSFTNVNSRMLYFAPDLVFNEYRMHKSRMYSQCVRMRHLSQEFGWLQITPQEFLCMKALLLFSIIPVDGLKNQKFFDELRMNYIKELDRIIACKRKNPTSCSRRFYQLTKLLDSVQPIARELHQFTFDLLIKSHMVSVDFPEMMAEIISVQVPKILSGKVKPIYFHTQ
# Assay Comment: EGFP reporter assay of AR activity, LNCaP-Pb.PSE.EGFP cells, flow cytometry
# Assay type: cell-based
# Settings: 10 μM, 4 days of treatment
Value Type: Effect on transcriptional activity of AR WT in EGFP reporter assay (agonism or antagonism)

CNC(=O)c1ccc(N2C(=S)N(c3cnc(C#N)c(C(F)(F)F)c3)C(=O)C23CCCC(C)(C)C3)cc1F (racemic) [(±)-DR106] :: effectively antagonized
CNC(=O)c1ccc(N2C(=S)N(c3ccc(C#N)c(C(F)(F)F)c3)C(=O)C23CCCC(C)(C)C3)cc1F (racemic) [(±)-DR103] :: effectively antagonized

Data provenance: patent US10206911B2
